# TARGET_OR_SYSTEM: Fatty acid synthase (Homo sapiens, UniProt P49327)
# Sequence (P49327 whole entry, the tested form may be a part): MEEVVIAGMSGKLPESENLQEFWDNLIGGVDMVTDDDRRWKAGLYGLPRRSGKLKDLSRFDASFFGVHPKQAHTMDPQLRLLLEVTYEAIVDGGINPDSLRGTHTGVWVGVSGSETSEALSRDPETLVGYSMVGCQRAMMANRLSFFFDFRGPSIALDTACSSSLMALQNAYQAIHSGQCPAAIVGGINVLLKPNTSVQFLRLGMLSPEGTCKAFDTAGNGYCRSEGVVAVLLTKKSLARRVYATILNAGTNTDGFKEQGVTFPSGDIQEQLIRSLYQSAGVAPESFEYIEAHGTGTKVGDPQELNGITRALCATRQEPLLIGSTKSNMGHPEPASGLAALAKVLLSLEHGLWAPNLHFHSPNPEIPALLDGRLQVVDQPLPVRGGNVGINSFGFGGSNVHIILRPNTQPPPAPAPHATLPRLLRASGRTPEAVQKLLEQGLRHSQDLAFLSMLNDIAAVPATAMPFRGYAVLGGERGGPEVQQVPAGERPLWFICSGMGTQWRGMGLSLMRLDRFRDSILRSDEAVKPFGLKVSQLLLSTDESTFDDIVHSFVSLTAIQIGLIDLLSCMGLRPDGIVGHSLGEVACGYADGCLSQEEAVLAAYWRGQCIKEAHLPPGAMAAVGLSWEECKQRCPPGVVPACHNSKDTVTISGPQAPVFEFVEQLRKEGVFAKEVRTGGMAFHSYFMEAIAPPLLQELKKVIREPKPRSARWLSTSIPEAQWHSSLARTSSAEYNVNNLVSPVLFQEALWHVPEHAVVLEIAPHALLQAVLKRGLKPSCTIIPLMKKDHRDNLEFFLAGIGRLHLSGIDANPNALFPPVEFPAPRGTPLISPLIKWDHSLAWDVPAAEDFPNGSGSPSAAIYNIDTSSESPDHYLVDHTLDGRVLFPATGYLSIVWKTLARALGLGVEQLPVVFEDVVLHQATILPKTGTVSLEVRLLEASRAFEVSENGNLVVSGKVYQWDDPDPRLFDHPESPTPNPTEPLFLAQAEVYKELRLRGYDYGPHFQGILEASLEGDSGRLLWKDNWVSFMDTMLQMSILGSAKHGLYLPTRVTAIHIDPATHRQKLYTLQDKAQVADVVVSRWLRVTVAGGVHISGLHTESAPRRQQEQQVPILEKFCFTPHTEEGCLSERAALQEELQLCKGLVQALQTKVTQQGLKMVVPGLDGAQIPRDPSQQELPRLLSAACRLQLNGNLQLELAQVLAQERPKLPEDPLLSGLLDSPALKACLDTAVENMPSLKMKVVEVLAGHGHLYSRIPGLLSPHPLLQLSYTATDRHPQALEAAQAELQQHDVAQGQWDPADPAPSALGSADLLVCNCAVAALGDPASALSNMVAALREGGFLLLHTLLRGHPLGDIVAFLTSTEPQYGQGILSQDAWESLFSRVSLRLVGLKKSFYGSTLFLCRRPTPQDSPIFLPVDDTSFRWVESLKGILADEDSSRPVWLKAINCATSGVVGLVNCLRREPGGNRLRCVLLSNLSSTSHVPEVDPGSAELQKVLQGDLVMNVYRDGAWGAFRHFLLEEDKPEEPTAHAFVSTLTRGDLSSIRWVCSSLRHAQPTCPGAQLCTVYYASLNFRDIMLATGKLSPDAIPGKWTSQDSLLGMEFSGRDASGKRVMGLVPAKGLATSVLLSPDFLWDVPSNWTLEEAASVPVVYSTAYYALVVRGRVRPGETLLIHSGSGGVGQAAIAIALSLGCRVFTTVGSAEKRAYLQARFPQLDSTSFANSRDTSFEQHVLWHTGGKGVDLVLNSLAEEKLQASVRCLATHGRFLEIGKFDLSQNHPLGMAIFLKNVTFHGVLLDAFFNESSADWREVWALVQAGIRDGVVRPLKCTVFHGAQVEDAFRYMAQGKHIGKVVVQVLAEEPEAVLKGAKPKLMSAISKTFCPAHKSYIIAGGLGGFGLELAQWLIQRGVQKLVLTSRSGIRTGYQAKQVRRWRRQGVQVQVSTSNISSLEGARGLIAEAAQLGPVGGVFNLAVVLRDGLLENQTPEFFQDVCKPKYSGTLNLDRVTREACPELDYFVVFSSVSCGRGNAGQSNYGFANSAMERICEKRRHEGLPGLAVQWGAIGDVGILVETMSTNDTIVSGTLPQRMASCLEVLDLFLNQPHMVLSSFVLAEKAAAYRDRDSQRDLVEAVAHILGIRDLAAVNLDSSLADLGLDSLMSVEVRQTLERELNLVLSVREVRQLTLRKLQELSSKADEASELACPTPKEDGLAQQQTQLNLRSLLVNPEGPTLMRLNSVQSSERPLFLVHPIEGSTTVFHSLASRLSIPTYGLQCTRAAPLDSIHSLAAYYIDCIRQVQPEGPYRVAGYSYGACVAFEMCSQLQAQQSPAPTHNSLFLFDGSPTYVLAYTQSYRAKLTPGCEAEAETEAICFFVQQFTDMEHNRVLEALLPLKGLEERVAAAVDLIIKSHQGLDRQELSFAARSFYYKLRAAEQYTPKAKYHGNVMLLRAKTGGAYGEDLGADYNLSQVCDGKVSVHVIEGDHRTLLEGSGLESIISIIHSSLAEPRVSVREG
# METHOD_DESCRIPTION: FAS thioesterase domain inhibitors, dose response, biochemical, endpoint fluorescence intensity, uHTS hits (AID 624327);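 also: fluorescence from hydrolysis of an O-methyl fluorescein acyl ester substrate by the enzyme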
# Assay type: functional
Calls of active or inactive are those of the source. Rule as the data show it: active = IC50 of 20 µM or less and inactive = more.
Response enum: active, inactive

A selection of reference data follows.
>>> class_name("O=[N+]([O-])c1cc(CS(=O)(=O)Oc2ccc(Cl)cc2)c(O)c([N+](=O)[O-])c1")
"active"
>>> class_name("CC(=O)c1cccc(-c2ccnc3c2CC(C(=O)Nc2ccc(F)c(Cl)c2)O3)c1 (stereo not drawn)")
"active"
>>> class_name("COc1ccc(C2CC(c3cccs3)=NN2C(=O)CSc2nc(=O)n3ccc(C)cc3n2)cc1 (stereo not drawn)")
"active"
>>> class_name("O=c1oc(-c2ccccc2Br)nc2ccccc12")
"active"
>>> class_name("O=C1NC(=S)N(C2CCCCC2)C(=O)/C1=C/NNC(=O)c1ccccc1O")
"inactive"
>>> class_name("O=C(/C=C/c1cccc([N+](=O)[O-])c1)NCCSCc1c(Cl)cccc1Cl")
"active"

Challenge: Just curious, what result did C[C@@]12C(=O)Nc3cc(F)c(F)cc3C(=O)N1[C@H]1c3ccccc3OC[C@@H]1[C@@H]2c1ccccc1 get here?
Response given: active

Challenge: Just curious, what result did CCCCOC(=O)CNc1nnc(SCC(=O)OCC)nc1O get here?
Response given: active

Source listed as ChEMBL document CHEMBL1201862.
